Origin of measurements: patent US20210045385A1

# Tested on: kochia (Kochia scoparia)
# test-summary: Test A preemergence, visual plant response rating
# Assay type: in vivo
# condition-context: 500 g ai/ha Preemergence; approx. 10 days
measured-attribute: Kochia plant response rating (0 to 100 scale)

Here's what some known entries look like.
{"compound": "CON=C(c1c(O)c(C)nn(C)c1=O)c1ccc(Cl)c2ccccc12 [Compound 130]", "assayed-target": "kochia (Kochia scoparia)", "reported-measurement": 0}
{"compound": "CON=C(c1ccccc1C1CC1)c1c(O)c(C)nn(C)c1=O [Compound 105]", "assayed-target": "kochia (Kochia scoparia)", "reported-measurement": 70}
{"compound": "CO/N=C(\\c1cccc(C#N)c1)c1c(O)c(C)nn(C)c1=O [Compound 74]", "assayed-target": "kochia (Kochia scoparia)", "reported-measurement": 0}
{"compound": "Cc1ccccc1/C(=N/OC(C)C)c1c(O)c(C)nn(C)c1=O [Compound 19]", "assayed-target": "kochia (Kochia scoparia)", "reported-measurement": 0}
{"compound": "CCO/N=C(/c1c(O)c(C)nn(C)c1=O)c1cccc2ccccc12 [Compound 78]", "assayed-target": "kochia (Kochia scoparia)", "reported-measurement": 30}

Report Kochia plant response rating (0 to 100 scale) for each item below.
1. CON=C(c1cccc(Cl)c1)c1c(O)c(C)n[nH]c1=O (mixture of isomers) [Compound 143]
2. CO/N=C(\c1cccc(S(C)(=O)=O)c1)c1c(O)c(C)nn(C)c1=O [Compound 148]
3. CON=C(c1ccc(C)o1)c1c(O)c(C)nn(C)c1=O [Compound 141]

Found:
1. 10
2. 0
3. 0
